molecular target: T1, MUC1 on MUC1+ human cancer cell lines and tumor tissue (abnormal, e.g. hypoglycosylated, tumor MUC1) (human, UniProt P15941 24-1255); assay: flow cytometry, PANC-1 cells
T1 construct: the MUC1 of each cell line or tissue (number of repeats, glycoform) is not specified; The cell line or tissue is named under assay; also called MUC1 on HPAF, MCF-7, BT-20, SKBR-3, PANC-1, MS+MUC1 cells; MUC1 on colon and pancreatic tumor samples
Property Label: percentage of APC+ stained cells (%)
Give bare numbers, in %.

In plain terms, M3 (antibody, human IgG1, lambda, V domains shown, Human IgG) VH: QLQLQESGPGLVKPSETLSLTCTVSGGSISSSSYYWGWIRQPPGKGLEWIGSIYYSGSTHYNPSLKSRVTISVDTSKNQFSLKLRSVTAADTAVYYCARGVVEVRGNHYYYYYMDVWGKGTTVTVSS VL: QSVLTQPPSVSGAPGQRVTISCTGSSSNIGAGYDVHWYQQLPGTAPKLLIYGNSYRPSGVPDRFSGSKSGTSASLAITGLQAEDEADYYCQSYDSSLSGSGVFGGGTKLTVLG has a documented percentage of APC+ stained cells of 1.55
